Biological target: full length mouse TREX1 (Mus musculus, UniProt Q91XB0)
Construct: N-terminally His-Tev tagged full length mouse TREX1; made in house; host or cells: E. coli
Sequence (Q91XB0 1-314): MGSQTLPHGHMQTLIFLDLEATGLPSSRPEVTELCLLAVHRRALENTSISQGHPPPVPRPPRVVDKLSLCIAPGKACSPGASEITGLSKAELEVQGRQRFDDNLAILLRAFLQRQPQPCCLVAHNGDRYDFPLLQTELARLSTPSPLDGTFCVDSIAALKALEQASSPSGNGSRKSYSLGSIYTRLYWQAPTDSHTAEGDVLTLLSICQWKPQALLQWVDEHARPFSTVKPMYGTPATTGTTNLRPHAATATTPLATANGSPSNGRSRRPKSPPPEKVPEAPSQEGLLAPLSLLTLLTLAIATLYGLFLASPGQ
Assay: mTREX1 Biochemical Assay (fluorescence, dsDNA substrate degradation)
Details: biochemical, read-out: mTREX1 IC50
observed property: IC50

So, CC(c1nc(C(=O)Nc2cnoc2)c(O)c(=O)n1C)C(c1cnn(C)c1)c1ccncc1C#N (single isomer, unassigned) [Example 8 D1E1] ? Its IC50 was > 0.01 µM

Item: CCn1cc(C(c2ccccc2C#N)C(C)c2nc(C(=O)Nc3cnoc3)c(O)c(=O)n2C)c(C)n1 (single isomer, unassigned) [Example 70 D2E2] | IC50: > 0.01 µM

Data point: CC(c1nc(C(=O)Nc2cnoc2)c(O)c(=O)n1C)C(c1cnn(CC(F)(F)F)c1)c1ccccc1C#N (single isomer, unassigned) [Example 22 D1E1] ; IC50 = 0.001 to 0.01 µM

So, CC(c1nc(C(=O)Nc2cnoc2)c(O)c(=O)n1C)C(c1ccccc1)c1cccnc1C#N (single isomer, unassigned) [Example 155 D2E2] ? Its IC50 was > 0.01 µM

New cases:
Noted for CC(c1nc(C(=O)Nc2cnoc2)c(O)c(=O)n1C)C(c1cnn(C)c1)c1cc(C(F)(F)F)ccc1C#N (single isomer, unassigned) [Example 29 D2E1] : its IC50 reads > 0.01 µM

The compound listed as CC(c1nc(C(=O)Nc2cnoc2)c(O)c(=O)n1C)C(c1cnn(C)c1)c1ccc(F)cc1C#N (single isomer, unassigned) [Example 15 D1E2] has a reported IC50 of > 0.01 µM

Quick note, IC50 for CC(c1nc(C(=O)Nc2cnoc2)c(O)c(=O)n1C)C(c1cnn(C)c1)c1cc(F)c(F)cc1C#N (single isomer, unassigned) [Example 25 D2E1] landed at > 0.01 µM

# compound Cc1ccnn1C(c1ccccc1C#N)C(C)c1nc(C(=O)Nc2cnoc2)c(O)c(=O)n1C (single isomer, unassigned) [Example 138 D1E1] ; its IC50 = 0.001 to 0.01 µM

Record summary for Cc1cc(C(c2ccccc2C#N)C(C)c2nc(C(=O)Nc3cnoc3)c(O)c(=O)n2C)n(C)n1 (single isomer, unassigned) [Example 63 D1E1] : reported IC50 = 0.001 to 0.01 µM

Lab book: IC50 of COCCn1cc(C(c2cc(F)ccc2C#N)C(C)c2nc(C(=O)Nc3cnoc3)c(O)c(=O)n2C)c(C)n1 (single isomer, unassigned) [Example 103 D1E1] noted as > 0.01 µM

Note to self: IC50 recorded for Cc1nn(C)c(C)c1C(c1ccccc1C#N)C(C)c1nc(C(=O)Nc2cnoc2)c(O)c(=O)n1C (single isomer, unassigned) [Example 78 D2E2] was > 0.01 µM

Per the record, CC(c1nc(C(=O)Nc2cnoc2)c(O)c(=O)n1C)C(c1ccccc1C#N)c1cn(C)nc1C#N (single isomer, unassigned) [Example 10 D1E2] has IC50 of > 0.01 µM

Notebook: Cc1nccc(C(c2ccccc2C#N)C(C)c2nc(C(=O)Nc3cnoc3)c(O)c(=O)n2C)n1 (single isomer, unassigned) [Example 83 D1E2] , IC50 read as > 0.01 µM

Per the record, CC(c1nc(C(=O)Nc2cnoc2)c(O)c(=O)n1C)C(c1ccccc1)c1cccnc1C#N (single isomer, unassigned) [Example 155 D1E2] has IC50 of 0.001 to 0.01 µM

Short answer for CC(c1nc(C(=O)Nc2cnoc2)c(O)c(=O)n1C)C(c1ccccc1Cl)n1cc(C(F)(F)F)cn1 (single isomer, unassigned) [Example 139 D1E2] : IC50 was > 0.01 µM

For CCn1ncc(C(c2ccccc2C#N)C(C)c2nc(C(=O)Nc3cnoc3)c(O)c(=O)n2C)c1C (single isomer, unassigned) [Example 68 D2E1] the compound record lists IC50 as > 0.01 µM

IC50 for CCn1cc(C(c2ccccc2Cl)C(C)c2nc(C(=O)Nc3cnoc3)c(O)c(=O)n2C)cn1 (single isomer, unassigned) [Example 85 D1E1] is < 0.001 µM

GET /value?item= CC(c1nc(C(=O)Nc2cnoc2)c(O)c(=O)n1C)C(c1cnn(CC(C)(C)C#N)c1)c1cc(F)ccc1Cl (single isomer, unassigned) [Example 99 D1E2] &field=IC50 returns 0.001 to 0.01 µM

The compound listed as Cc1cc(C)n(C(c2ccccc2Cl)C(C)c2nc(C(=O)Nc3cnoc3)c(O)c(=O)n2C)n1 (single isomer, unassigned) [Example 136 D1E2] shows IC50 equal to > 0.01 µM

Entry CC(c1nc(C(=O)Nc2cnoc2)c(O)c(=O)n1C)C(c1ccccc1C#N)c1nnnn1C (single isomer, unassigned) [Example 131 D1E2] — recorded IC50 = > 0.01 µM

# IC50 of CC(c1nc(C(=O)Nc2cnoc2)c(O)c(=O)n1C)C(c1ccccc1Cl)c1nncn1C (single isomer, unassigned) [Example 152 D2E2] = > 0.01 µM

Sure, the documented IC50 for Cc1ncc(C(c2ccccc2Cl)C(C)c2nc(C(=O)Nc3cnoc3)c(O)c(=O)n2C)nc1C (single isomer, unassigned) [Example 125 D2E2] is > 0.01 µM

Field IC50 (entry Cc1nn(C)cc1C(c1cc(F)ccc1C#N)C(C)c1nc(C(=O)Nc2cnoc2)c(O)c(=O)n1C (single isomer, unassigned) [Example 57 D2E2] ) reads > 0.01 µM
